Reference source for all entries: patent EP4755886A1

Test system: wild-type HCT-116 cells
assay: Cell proliferation (MTS), wild-type HCT-116
Format: cell-based
test-settings: Homo sapiens, 240 h; wild-type HCT-116, 10 days with compound, MTS reading; read-out: IC50 HCT116 WT
measured-parameter: IC50 (nM)
Respond with the bare value in nM.

Recorded IC50, per entry:
>>> print(df.to_string())
                                   compound        target_under_test  data_value
0  CN(C(=O)c1cc2c(cc1Cl)nc(N)c1cnn(C)c12)C1COc2cc(C#Cc3cnn(C)c3)ccc21 (stereo not shown) [Compound 9]  wild-type HCT-116 cells        97.7
1  CN(C(=O)c1cc2c3c(c(N)nc2cc1Cl)COC3)C1COCc2cc(C#Cc3cnn(C4CC4)c3)ccc21 (stereo not shown) [Compound 87]  wild-type HCT-116 cells         504
2  CN(C(=O)c1ccc2nc(N)c3cnn(C)c3c2c1)[C@@H]1COc2cc(C#Cc3cnn(C(F)F)c3)ccc21 [Compound 30A]  wild-type HCT-116 cells         240

Record CN(C(=O)c1cc2c3c(c(N)nc2cc1Cl)COC3)[C@@H]1COc2cc(C#Cc3cnc4n3CCC4)ccc21 [Compound 75A] , field IC50: 424

Record CN(C(=O)c1cc2c(cc1F)nc(N)c1cnn(C)c12)[C@@H]1COc2cc(C#Cc3cnc4n3CCC4)ccc21 [Compound 84A] , field IC50: 143

Record CN(C(=O)c1cc2c(cc1F)nc(N)c1cnn(C)c12)C1COc2cc(C#Cc3cn(C)nc3Cl)ccc21 (stereo not shown) [Compound 24] , field IC50: 115

----------
assay: Human liver microsome stability
Type: in vitro ADME
test-settings: pH 7.4; human liver microsomes 0.5 mg/mL, compound 1 µM, NADPH 1 mM, 37 °C
Below is a list of entries, each paired with its recorded half-life at 1 µM value.
Respond with the bare value in min.

                                   molecule  measurement_units  data_value
0  C#Cc1ccc2c(c1)OC[C@H]2N(C)C(=O)c1cc2c3c(c(N)nc2cc1Cl)COC3 [Reference Example 5, reference compound]                min        25.6

Record CN(C(=O)c1cc2c3c(c(N)nc2cc1Cl)COC3)[C@@H]1COc2cc(C#Cc3cnn4c3CCCC4)ccc21 [Compound 91A] , field half-life at 1 µM: 47.2

Record CN(C(=O)c1cc2c3c(c(N)nc2cc1Cl)COC3)[C@@H]1COc2cc(C#Cc3cnn(C4CC4)c3)ccc21 [Compound 43A] , field half-life at 1 µM: 122

----------
Below is a list of entries, each paired with its recorded IC50 value.
target-under-test: CYP450 enzyme 3A4 (Homo sapiens, UniProt P08684)
Construct: Liver microsomes (purchased from BIOIVT, Cat. No.: X008070); tissue BIOIVT X008070; host or cells: human liver microsomes
Sequence (P08684 whole entry): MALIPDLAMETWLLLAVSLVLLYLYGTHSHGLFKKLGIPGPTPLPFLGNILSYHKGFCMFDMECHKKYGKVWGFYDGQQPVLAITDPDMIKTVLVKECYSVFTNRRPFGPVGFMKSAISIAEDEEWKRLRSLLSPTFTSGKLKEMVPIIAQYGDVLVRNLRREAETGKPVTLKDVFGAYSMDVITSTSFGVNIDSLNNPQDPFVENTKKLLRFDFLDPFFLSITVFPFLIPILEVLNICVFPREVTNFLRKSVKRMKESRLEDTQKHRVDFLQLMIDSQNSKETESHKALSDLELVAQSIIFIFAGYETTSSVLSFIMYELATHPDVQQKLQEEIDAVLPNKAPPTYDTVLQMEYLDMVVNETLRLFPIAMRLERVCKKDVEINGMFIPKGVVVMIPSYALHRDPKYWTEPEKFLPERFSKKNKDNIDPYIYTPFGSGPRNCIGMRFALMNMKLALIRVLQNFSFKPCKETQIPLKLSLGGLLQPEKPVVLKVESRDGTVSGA
assay: CYP inhibition test in human liver microsomes
Type: in vitro ADME
test-settings: human liver microsomes 0.1 mg/mL, substrate testosterone 40 µM; read-out: IC50 3A4-Testosterone

compound	target-under-test	IC50
CN(C(=O)c1cc2c3c(c(N)nc2cc1Cl)COC3)[C@@H]1COc2cc(C#Cc3cnn(C)c3)ccc21 [Compound 40A]	CYP450 enzyme 3A4 (Homo sapiens, UniProt P08684)	> 30 µM
Cn1ncc(-c2ccc3c(=O)[nH]nc(CN)c3c2)c1-c1c(F)c(Cl)cc(OC2CC2)c1C#N (atropisomer, axis not shown) [Reference Example 6, reference compound]	CYP450 enzyme 3A4 (Homo sapiens, UniProt P08684)	1.95 µM
CN(C(=O)c1cc2c(cc1F)nc(N)c1cnn(C)c12)[C@@H]1COc2cc(C#Cc3cnn(C)c3)ccc21	CYP450 enzyme 3A4 (Homo sapiens, UniProt P08684)	> 30 µM

Record CN(C(=O)c1cc2c3c(c(N)nc2cc1Cl)COC3)[C@@H]1COc2cc(C#Cc3cnn(C4CC4)c3)ccc21 [Compound 43A] , field IC50: > 30 µM

Record Cc1nn(C)cc1C#Cc1ccc2c(c1)OC[C@H]2N(C)C(=O)c1cc2c3c(c(N)nc2cc1Cl)COC3 [Compound 50A] , field IC50: > 30 µM
